Listed next: entries and their corresponding Tmax.
experiment: Oral bioavailability and pharmacokinetics studies; format: in vivo, male Balb/c mice; settings: plasma; oral 50 mg/kg, male Balb/c mouse
API: value field is a number in min; no unit string.

>  <Compound>
O=C(CCCCCCC(=O)Nc1ccccc1)NO [SAHA, Suberoylanilide Hydroxamic Acid, reference compound]

>  <Uom>
min

>  <Tmax>
4.8

$$$$

Proceeding to the next compound to report its Tmax.
Exercise: What measured Tmax goes with CCN(CC)Cc1ccc(-c2cn(Cc3ccc(C(=O)NO)cc3)nn2)c(F)c1 [Example 13] ?
Key: 4.8

###

test: Oral bioavailability and pharmacokinetics studies; assay type: in vivo, male Balb/c mice; conditions: plasma; oral 50 mg/kg, male Balb/c mouse
Measurement Label: AUC(0-t) (ng·h/mL)
Dear colleague, please return just the value in ng·h/mL, with no unit written.

Exercise: Consider the compound shown here: `CCN(CC)Cc1ccc(-c2cn(Cc3ccc(C(=O)NO)cc3)nn2)c(F)c1` What is its recorded AUC(0-t)?
Key: 3340

###

system: PC-3; test: Cell proliferation assay (MTT); type: cell-based; details: Homo sapiens, PC-3; Table 9; Prostate; read-out: Anti-proliferative activity (GI50) PC-3
Structures can show the parent of a compound that is named as a salt.
Measurement Label: GI50 (µM)
Hi! Could you send only the number? It should be in µM, unit omitted.

// known answers, use as guide
>  <Compound>
O=C(NO)c1ccc(Cn2cc(-c3ccc(CN4CCCC4)cc3)nn2)cc1

>  <GI50 [µM]>
4.1

$$$$
>  <Compound>
O=C(/C=C/c1cccc(Cn2cc(-c3ccc(CN4CCOCC4)cc3)nn2)c1)NO [Example 25, hydrochloride]

>  <GI50 [µM]>
1.7

$$$$
>  <Compound>
O=C(NO)c1ccc(Cn2cc(-c3ccc(CN4CCOCC4)cc3)nn2)cc1

>  <GI50 [µM]>
13.4

$$$$
>  <Compound>
O=C(/C=C/c1ccc(Cn2cc(-c3ccc(CN4CCCC4)cc3)nn2)cc1)NO

>  <GI50 [µM]>
3.5

$$$$

Attention now shifts to the item below.
Exercise: Quick check: GI50 of `CN(C)Cc1ccc(-c2cn(Cc3ccc(/C=C/C(=O)NO)cc3)nn2)cc1` ?
Key: 4.8

###

tested on: human HDAC (Hela cells nuclear extract); experiment: HDAC activity screening, Hela nuclear extract, Boc-Lys(Ac)-AMC substrate; type: biochemical; details: 10 μM compound, Hela nuclear extract
Parameter: HDAC % Inhibition (10 μM). Scope: all listed entries.
Give your result in % as a bare value.

Solved entries:
>  <Smiles Input>
O=C(NO)c1ccc(Cn2cc(-c3ccc(F)cc3)nn2)cc1

>  <Uom>
%

>  <Observed Result>
96

$$$$
>  <Smiles Input>
CN(C)c1ccc(-c2cn(CS(=O)(=O)NCc3ccc(C(=O)NO)cc3)nn2)cc1

>  <Uom>
%

>  <Observed Result>
97

$$$$
>  <Smiles Input>
CN(C)c1ccc(-c2cn(Cc3ccc(C(=O)NO)cc3)nn2)cc1

>  <Uom>
%

>  <Observed Result>
94

$$$$
>  <Smiles Input>
O=C(/C=C/c1ccc(Cn2cc(-c3ccc(CN4CCCC4)cc3)nn2)cc1)NO

>  <Uom>
%

>  <Observed Result>
100

$$$$
>  <Smiles Input>
COc1ccc(-c2cn(Cc3ccc(C(=O)NO)cc3)nn2)cc1

>  <Uom>
%

>  <Observed Result>
94

$$$$
>  <Smiles Input>
O=C(NO)c1ccc(CNS(=O)(=O)Cn2cc(-c3ccccc3F)nn2)cc1

>  <Uom>
%

>  <Observed Result>
99

$$$$

Exercise: What value of HDAC % Inhibition (10 μM) has been reported for the following compound? `O=C(NO)c1ccc(CNS(=O)(=O)Cn2cc(-c3ccc(F)cc3)nn2)cc1`
Key: 98

Exercise: Sample `O=C(/C=C/c1cccc(Cn2cc(-c3cccnc3)nn2)c1)NO` — what was its HDAC % Inhibition (10 μM)?
Key: 101

Exercise: For `O=C(NO)c1ccc(Cn2cc(-c3cccnc3)nn2)cc1` , what is its reported HDAC % Inhibition (10 μM)?
Key: 88

###

target: CYP 2D6 (Homo sapiens); construct: purchased; test: Cytochrome-P450 isoforms liability determination; format: in vitro ADME
Sequence (P10635 whole entry, canonical isoform): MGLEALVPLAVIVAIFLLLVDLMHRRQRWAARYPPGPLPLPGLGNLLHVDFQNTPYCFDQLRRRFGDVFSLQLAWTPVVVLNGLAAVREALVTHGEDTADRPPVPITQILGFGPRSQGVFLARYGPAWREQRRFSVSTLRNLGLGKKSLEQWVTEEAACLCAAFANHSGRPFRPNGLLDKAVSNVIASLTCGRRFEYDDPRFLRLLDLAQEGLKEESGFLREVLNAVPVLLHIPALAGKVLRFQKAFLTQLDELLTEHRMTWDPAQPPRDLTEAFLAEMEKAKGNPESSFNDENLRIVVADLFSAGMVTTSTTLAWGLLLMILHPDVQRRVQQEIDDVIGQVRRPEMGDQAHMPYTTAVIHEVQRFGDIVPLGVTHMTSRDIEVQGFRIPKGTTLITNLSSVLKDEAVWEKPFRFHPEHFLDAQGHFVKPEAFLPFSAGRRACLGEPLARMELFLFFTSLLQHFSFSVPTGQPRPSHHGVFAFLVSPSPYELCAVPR
Measurement Label: pIC50
Note on pIC50: it is the negative log10 of concentration, concentration in mol/L.

Exercise: Test system CYP 2D6 (Homo sapiens); read-out pIC50; what value for O=C(CCCCCCC(=O)Nc1ccccc1)NO [SAHA, Suberoylanilide Hydroxamic Acid, reference compound] ?
Key: 5.44

###

test system: NCI-H23; experiment: Anti-proliferative activity (GI50); format: cell-based; conditions: Homo sapiens, Table 9, Lung
Counter-ions that a name gives are not always drawn.
Measurement Label: GI50
Quote the value and follow it with the unit of measurement.

As a guide, the following entries are already answered.
>  <Compound>
O=C(NO)c1ccc(Cn2cc(-c3ccc(CN4CCCC4)cc3)nn2)cc1

>  <Study Target>
NCI-H23

>  <GI50>
900 nM

$$$$
>  <Compound>
O=C(/C=C/c1ccc(Cn2cc(-c3ccc(CN4CCCC4)cc3)nn2)cc1)NO

>  <Study Target>
NCI-H23

>  <GI50>
520 nM

$$$$
>  <Compound>
O=C(/C=C/c1cccc(Cn2cc(-c3ccc(CN4CCOCC4)cc3)nn2)c1)NO [Example 25, hydrochloride]

>  <Study Target>
NCI-H23

>  <GI50>
400 nM

$$$$
>  <Compound>
CN(C)Cc1ccc(-c2cn(Cc3ccc(/C=C/C(=O)NO)cc3)nn2)cc1

>  <Study Target>
NCI-H23

>  <GI50>
500 nM

$$$$

Consider now this further compound.
Exercise: Look up GI50: `O=C(NO)c1ccc(Cn2cc(-c3ccc(CN4CCOCC4)cc3)nn2)cc1`
Key: 2300 nM

###

Let's look at some compounds and their measured GI50.
test system: 786-O; assay: Anti-proliferative activity (GI50); type: cell-based; conditions: Homo sapiens, 786-0; Table 9; Renal
Counter-ions that a name gives are not always drawn.
Output spec: scalar in µM, unitless text.

Examples with their reported GI50 follow.
>  <Compound>
O=C(/C=C/c1cccc(Cn2cc(-c3ccc(CN4CCOCC4)cc3)nn2)c1)NO [Example 25, hydrochloride]

>  <GI50, µM>
1.5

$$$$
>  <Compound>
O=C(NO)c1ccc(Cn2cc(-c3ccc(CN4CCCC4)cc3)nn2)cc1

>  <GI50, µM>
4.1

$$$$
>  <Compound>
CN(C)Cc1ccc(-c2cn(Cc3ccc(/C=C/C(=O)NO)cc3)nn2)cc1

>  <GI50, µM>
2

$$$$
>  <Compound>
O=C(/C=C/c1ccc(Cn2cc(-c3ccc(CN4CCCC4)cc3)nn2)cc1)NO

>  <GI50, µM>
2.65

$$$$

Alright, here's another compound for you.
Exercise: Requested read-out: GI50. Entry: `O=C(NO)c1ccc(Cn2cc(-c3ccc(CN4CCOCC4)cc3)nn2)cc1`
Key: 2.5

###

target: CYP 2C19 (Homo sapiens, UniProt P33261); construct: purchased; test: Cytochrome-P450 isoforms liability determination; assay type: in vitro ADME
Sequence (P33261 whole entry, canonical isoform): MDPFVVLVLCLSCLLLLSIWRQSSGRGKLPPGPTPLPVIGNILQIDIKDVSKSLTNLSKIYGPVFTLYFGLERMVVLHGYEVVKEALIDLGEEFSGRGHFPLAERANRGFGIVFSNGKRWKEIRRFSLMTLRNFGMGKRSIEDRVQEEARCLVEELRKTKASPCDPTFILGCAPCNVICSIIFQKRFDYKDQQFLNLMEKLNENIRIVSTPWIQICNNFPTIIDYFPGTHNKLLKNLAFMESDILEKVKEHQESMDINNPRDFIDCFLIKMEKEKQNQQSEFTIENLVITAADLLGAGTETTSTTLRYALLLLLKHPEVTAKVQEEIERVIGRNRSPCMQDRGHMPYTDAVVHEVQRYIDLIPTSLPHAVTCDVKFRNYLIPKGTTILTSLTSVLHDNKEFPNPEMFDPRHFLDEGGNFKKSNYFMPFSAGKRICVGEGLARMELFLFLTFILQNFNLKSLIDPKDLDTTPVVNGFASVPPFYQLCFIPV
Measurement Label: IC50 (nM)
Give your result in nM as a bare value.

Exercise: What value of IC50 has been reported for the following compound? O=C(CCCCCCC(=O)Nc1ccccc1)NO [SAHA, Suberoylanilide Hydroxamic Acid, reference compound]
Key: 2900

###

test system: cleaved PARP; assay: PARP cleavage in HeLa cells (Western Blot); assay type: cell-based; design: key: represented by the symbol ‘+’ which indicates the relative extent of modulation; ++: represented by the symbol ‘+’ which indicates the relative extent of modulation; +++: represented by the symbol ‘+’ which indicates the relative extent of modulation; ++++: represented by the symbol ‘+’ which indicates the relative extent of modulation; conditions: 24 hrs, 0.03-3.0 μM
Where a name gives a salt, the structure may show the parent alone.
Measurement Label: PARP cleavage

Solved entries (count: 5):
>  <Compound>
CN(C)Cc1ccc(-c2cn(Cc3ccc(/C=C/C(=O)NO)cc3)nn2)cc1

>  <Measurement Label>
PARP cleavage

>  <Observed Result>
++++

$$$$
>  <Compound>
O=C(/C=C/c1cccc(Cn2cc(-c3ccc(CN4CCOCC4)cc3)nn2)c1)NO [Example 25, hydrochloride]

>  <Measurement Label>
PARP cleavage

>  <Observed Result>
+++

$$$$
>  <Compound>
O=C(NO)c1ccc(Cn2cc(-c3ccc(CN4CCOCC4)cc3)nn2)cc1

>  <Measurement Label>
PARP cleavage

>  <Observed Result>
+++

$$$$
>  <Compound>
O=C(CCCCCCC(=O)Nc1ccccc1)NO [SAHA, Suberoylanilide Hydroxamic Acid, reference compound]

>  <Measurement Label>
PARP cleavage

>  <Observed Result>
++

$$$$
>  <Compound>
O=C(/C=C/c1ccc(Cn2cc(-c3ccc(CN4CCCC4)cc3)nn2)cc1)NO

>  <Measurement Label>
PARP cleavage

>  <Observed Result>
++++

$$$$

Exercise: What PARP cleavage appears in the records for this compound with cleaved PARP? `O=C(NO)c1ccc(Cn2cc(-c3ccc(CN4CCCC4)cc3)nn2)cc1`
Key: +++
